- test system: rNav1.2 sodium channels (HEK-293 cells) (Rattus norvegicus, UniProt P04775)
- Sequence (P04775 whole entry): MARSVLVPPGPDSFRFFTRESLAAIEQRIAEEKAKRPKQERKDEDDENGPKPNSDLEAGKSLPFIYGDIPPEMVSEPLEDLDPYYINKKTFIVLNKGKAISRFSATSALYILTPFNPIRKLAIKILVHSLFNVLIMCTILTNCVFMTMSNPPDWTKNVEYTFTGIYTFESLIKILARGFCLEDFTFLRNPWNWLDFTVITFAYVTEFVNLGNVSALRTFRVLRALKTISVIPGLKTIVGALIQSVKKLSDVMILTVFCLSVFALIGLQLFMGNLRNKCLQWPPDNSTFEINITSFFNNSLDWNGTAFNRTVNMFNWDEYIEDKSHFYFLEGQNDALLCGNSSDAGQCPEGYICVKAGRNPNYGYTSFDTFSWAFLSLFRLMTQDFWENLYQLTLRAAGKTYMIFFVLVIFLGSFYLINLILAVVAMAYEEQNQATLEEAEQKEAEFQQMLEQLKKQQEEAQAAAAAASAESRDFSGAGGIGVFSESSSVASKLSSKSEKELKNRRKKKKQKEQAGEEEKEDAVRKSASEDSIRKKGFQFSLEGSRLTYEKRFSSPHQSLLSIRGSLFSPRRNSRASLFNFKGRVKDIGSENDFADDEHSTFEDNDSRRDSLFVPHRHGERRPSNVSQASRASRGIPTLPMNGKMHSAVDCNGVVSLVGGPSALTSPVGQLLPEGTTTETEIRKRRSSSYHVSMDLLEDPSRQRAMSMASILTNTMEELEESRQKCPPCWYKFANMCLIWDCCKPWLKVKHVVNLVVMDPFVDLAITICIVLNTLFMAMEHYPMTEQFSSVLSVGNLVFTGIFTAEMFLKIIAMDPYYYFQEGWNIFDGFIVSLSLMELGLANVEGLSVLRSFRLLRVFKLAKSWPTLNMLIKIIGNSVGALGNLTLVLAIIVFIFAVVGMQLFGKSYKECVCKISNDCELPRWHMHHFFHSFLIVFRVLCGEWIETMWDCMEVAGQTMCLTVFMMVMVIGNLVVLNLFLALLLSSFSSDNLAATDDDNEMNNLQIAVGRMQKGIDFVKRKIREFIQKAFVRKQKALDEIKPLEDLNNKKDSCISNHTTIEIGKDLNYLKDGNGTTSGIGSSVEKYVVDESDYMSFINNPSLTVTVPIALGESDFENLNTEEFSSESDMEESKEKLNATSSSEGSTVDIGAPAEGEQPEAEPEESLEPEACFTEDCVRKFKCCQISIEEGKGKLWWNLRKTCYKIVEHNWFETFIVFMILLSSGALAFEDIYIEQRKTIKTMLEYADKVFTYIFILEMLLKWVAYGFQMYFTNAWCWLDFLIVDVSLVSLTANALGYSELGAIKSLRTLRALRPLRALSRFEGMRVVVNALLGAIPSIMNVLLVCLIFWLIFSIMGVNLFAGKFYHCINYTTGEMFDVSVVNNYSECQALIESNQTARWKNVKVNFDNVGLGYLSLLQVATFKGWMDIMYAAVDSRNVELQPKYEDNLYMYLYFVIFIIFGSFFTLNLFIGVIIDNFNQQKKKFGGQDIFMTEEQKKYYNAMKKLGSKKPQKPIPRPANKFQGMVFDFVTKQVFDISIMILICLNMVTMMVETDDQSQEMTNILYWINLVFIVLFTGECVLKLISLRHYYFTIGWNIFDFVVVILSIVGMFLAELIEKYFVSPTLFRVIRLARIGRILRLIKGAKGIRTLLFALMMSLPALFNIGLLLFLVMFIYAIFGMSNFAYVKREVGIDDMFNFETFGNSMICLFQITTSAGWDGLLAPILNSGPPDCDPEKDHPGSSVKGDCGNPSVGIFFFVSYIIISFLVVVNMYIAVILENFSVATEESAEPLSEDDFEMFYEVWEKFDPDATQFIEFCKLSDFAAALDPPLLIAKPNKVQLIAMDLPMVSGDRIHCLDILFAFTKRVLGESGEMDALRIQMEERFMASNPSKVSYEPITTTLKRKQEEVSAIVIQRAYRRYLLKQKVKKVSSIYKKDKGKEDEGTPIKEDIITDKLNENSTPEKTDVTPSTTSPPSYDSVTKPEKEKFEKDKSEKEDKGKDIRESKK
- assay explanation: steady-state inactivation protocol (availability curves), QPatch automated patch-clamp
- Type: cell-based
- test context: arithmetic mean; 10 µM; read-out: Ki-Kapp arith
measured attribute: Ki (µM)
Expressed in µM, but write only the number.

The value of Ki measured for the compound CN(C)CCC=C1c2ccccc2CCc2ccccc21 [AMI, Amitriptyline] turned out to be 5.17

* * *

- test system: rNav1.2 sodium channels (HEK-293 cells) (Rattus norvegicus, UniProt P04775)
- assay explanation: 5 Hz train protocol, QPatch automated patch-clamp
- Type: cell-based
- test context: 100 μM
measured attribute: τon (s)
Number only, in s; omit the unit.

Worked examples follow.
compound="CN1CCN2c3ncccc3Cc3ccccc3C2C1 (centres unmarked)" measured_attribute=τon value_measured=3.99
compound="Cc1ccc(C(=O)C(C)CN2CCCCC2)cc1 (centres unmarked)" measured_attribute=τon value_measured=5.57
compound="CNCCC(Oc1ccccc1OC)c1ccccc1 (centres unmarked)" measured_attribute=τon value_measured=20.71
compound="CCCCN1CCCCC1C(=O)Nc1c(C)cccc1C (centres unmarked)" measured_attribute=τon value_measured=7.95
compound=Nc1c(Br)cc(Br)cc1CN[C@H]1CC[C@H](O)CC1 measured_attribute=τon value_measured=5.74
compound=O=C(O)Cc1ccccc1Nc1c(Cl)cccc1Cl measured_attribute=τon value_measured=7.19
compound="CC(NC(C)(C)C)C(=O)c1cccc(Cl)c1 (centres unmarked)" measured_attribute=τon value_measured=4.6

Then this compound:
Form: compound = COc1ccccc1OCC(O)CN1CCN(CC(=O)Nc2c(C)cccc2C)CC1 (centres unmarked) ; τon = 8.13
